All figures here come from ChEMBL document CHEMBL1143778.

Biological target: Cytochrome P450 3A4 (Homo sapiens)
Sequence (P08684 whole entry): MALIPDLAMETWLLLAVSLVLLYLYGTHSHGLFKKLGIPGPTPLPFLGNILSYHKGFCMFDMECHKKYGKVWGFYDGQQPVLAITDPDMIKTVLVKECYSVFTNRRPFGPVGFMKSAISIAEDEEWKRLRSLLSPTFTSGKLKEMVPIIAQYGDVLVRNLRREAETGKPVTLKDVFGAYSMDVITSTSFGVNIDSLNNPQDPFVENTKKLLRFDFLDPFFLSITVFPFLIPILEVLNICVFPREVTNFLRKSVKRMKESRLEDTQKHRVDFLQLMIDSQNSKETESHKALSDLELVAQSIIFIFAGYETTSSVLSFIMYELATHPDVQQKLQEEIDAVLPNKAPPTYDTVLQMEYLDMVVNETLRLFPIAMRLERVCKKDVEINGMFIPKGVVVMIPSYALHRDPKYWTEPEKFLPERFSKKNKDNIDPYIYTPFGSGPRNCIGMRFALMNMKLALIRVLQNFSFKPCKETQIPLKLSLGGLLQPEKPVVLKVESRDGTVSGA
Experiment: Inhibition of CYP3A4
Type: ADME
measured.quantity: IC50 (µM)
Quick reminder: number only, in µM, skip the unit.

So for CC(C)Nc1cc2c(cc1NS(=O)(=O)c1ccc(-c3ccc(Cl)cc3)cc1)CCN(C)CC2 , the logged IC50 turned out to be 7.5
